Subject of test: CXCR4 (Homo sapiens, UniProt P61073)
Sequence (P61073 whole entry): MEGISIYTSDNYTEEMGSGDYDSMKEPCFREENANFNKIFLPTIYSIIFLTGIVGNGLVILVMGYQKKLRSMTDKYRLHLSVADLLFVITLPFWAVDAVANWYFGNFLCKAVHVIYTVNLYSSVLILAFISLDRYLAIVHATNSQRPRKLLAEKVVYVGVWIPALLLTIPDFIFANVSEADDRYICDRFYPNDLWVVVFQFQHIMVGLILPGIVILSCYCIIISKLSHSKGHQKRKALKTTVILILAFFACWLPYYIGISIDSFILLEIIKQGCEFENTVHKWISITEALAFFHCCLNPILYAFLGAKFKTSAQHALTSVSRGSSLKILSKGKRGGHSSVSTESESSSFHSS
Test: Chemotaxis assay, effect on SDF1-a (CXCL12) induced migration of CCRF-CEM cells
Type: cell-based
Parameters: a human T-cell ALL line that endogenously expresses CXCR4; endogenous in cells; host or cells: CCRF-CEM (human T-cell ALL line)
Setup conditions: Table 21, i4 loop; CEM cells; conc 1.0 uM
Measurement label: Max (% of vehicle)

INSERT INTO results (substance, subject_of_test, measurement_label, recorded_value) VALUES
  ('110: CXCR4 i4 domain compound (GAKFKTSAQHALTSVSRGSSLKILSKGKRGGHSCFH) [Compound 110]', 'CXCR4 (Homo sapiens, UniProt P61073)', 'Max (% of vehicle)', '42.08 % of Vehicle'),
  ('109: CXCR4 i4 domain compound (GAKFKTSAQHALTSVSRGSSLKILSKGKRGGHSSVST) [Compound 109]', 'CXCR4 (Homo sapiens, UniProt P61073)', 'Max (% of vehicle)', '49.84 % of Vehicle'),
  ('115: CXCR4 i4 domain compound (GAKFKTSAQHALTSVSRGSSLK) [Compound 115]', 'CXCR4 (Homo sapiens, UniProt P61073)', 'Max (% of vehicle)', '92.11 % of Vehicle'),
  ('116: CXCR4 i4 domain compound (GAKFKTSAQHALTSVR) [Compound 116]', 'CXCR4 (Homo sapiens, UniProt P61073)', 'Max (% of vehicle)', '80.48 % of Vehicle'),
  ('108: CXCR4 i4 domain compound (GAKFKTSAQHALTSVSRGSSLKILSKGKRG) [Compound 108]', 'CXCR4 (Homo sapiens, UniProt P61073)', 'Max (% of vehicle)', '83.94 % of Vehicle');

Requested field: Max (% of vehicle). Item: 114: CXCR4 i4 domain compound (GAKFKTSAQHALTSVSRGSSLKILSK) [Compound 114]
63.12 % of Vehicle
